test: soluble fraction after stress (log2 fold change); higher = more stays soluble; pooled small domains, quantitative proteomics; conditions: stress: 50 degC
readout_type: soluble fraction (log2)
A bare number is all that is needed in reply.

# soluble fraction (log2) of HMSAAYVYVTGTRVNQRDGPSTFDRVMGVLVEGTRVQLLRDQGQWAQIRSDLGTGWLSSGFLSRNG = -1.87

# soluble fraction (log2) of HMVLSVRDRMVQILDQVKTGEYKRIEDFFSADEGRTGFVVSFVAILELVKGGLLTITQSKNLAPIYVRLPN = -0.19

# soluble fraction (log2) of HMQSLIVPVPKPEDDPVYKDGIKQDPVEVVSIWLGRDYLNMILNLKVSTGKGHTFGIVEDVS = 0.0321

# soluble fraction (log2) of HMLRQRVFRIIQNNINSKNYFVYTKQILAELAGISMRSLNRTLSELQNDRLIIVDSGTIRLFT = -1.49

###

assay: soluble fraction after stress (log2 fold change); higher = more stays soluble; pooled small domains, quantitative proteomics; conditions: stress: 50 degC
soluble fraction (log2) below -0.1 gives not fulfilled; soluble fraction (log2) at or above it gives fulfilled.

Prompt line: In plain terms: is recorded soluble fraction (log2) at least -0.1 for HMRDTLSKQLLTEEMVLQFIREMREHDPGIGGEKLHAMYLGRFGRDYEYMVGRDKMEMIIAENNLNVR ?
Response line: not fulfilled

Prompt line: In plain terms: is recorded soluble fraction (log2) at least -0.1 for HMGKLYRDRYAPLEPDGARAGDRVFIISLEKEGTLERIDLPRKTATVLLGSSIRSTFPLDDLYQPRG ?
Response line: fulfilled

Prompt line: In plain terms: is recorded soluble fraction (log2) at least -0.1 for HMVSLPSPLAGKVVSLTVQAGQEVKEGDEIMVLEAMKMNTQVHAPSSGRILALRVQPGDQVEEGQTLVTMG ?
Response line: fulfilled

Prompt line: In plain terms: is recorded soluble fraction (log2) at least -0.1 for HMRKTYHVDAYQDDKWWVLQVQEMPNAISQVKSLDQADEWIREAINIVSNEPEDSFDVVIIPV ?
Response line: not fulfilled

Prompt line: In plain terms: is recorded soluble fraction (log2) at least -0.1 for HMGIAEAKRVIVRTLHDVLGPEADFLTEKIDVAQTAAELRVHAEKYRDMLVDMGKPKKSAAFWEAFEAALP ?
Response line: fulfilled

Prompt line: In plain terms: is recorded soluble fraction (log2) at least -0.1 for HMASDEVPGAGFKWREDVLLRVMEANGIDKSNRDDFVRHAVNFDDDDNNYLKKAEIEAAAAAWVESQSPA ?
Response line: not fulfilled

Prompt line: In plain terms: is recorded soluble fraction (log2) at least -0.1 for HMGEVISRSYPLLKTKAKPAEVSEALQKLIKAPATVTFDEKNEVFHINATRLQHTWAEGYFKGLHGK ?
Response line: fulfilled

Prompt line: In plain terms: is recorded soluble fraction (log2) at least -0.1 for HMSSFRDISGTVYVKASAANLRSEPNTSSLIVDTLYYGASLQRISTNDIWTKVKTGNGQIGFMDNSLFQT ?
Response line: not fulfilled

Prompt line: In plain terms: is recorded soluble fraction (log2) at least -0.1 for HMQTMTDDQVMQYVISQQEKGATQQDIVSKLLQKGVTVDQMRRIRKKYEAQQSQPGALDLTGSS ?
Response line: fulfilled

Prompt line: In plain terms: is recorded soluble fraction (log2) at least -0.1 for HMRKSNADALDGKTGIVKEEIKTGGYGYVGIDGDMWRSISESGEAIPAGTKVVVISHESIILTVKPA ?
Response line: not fulfilled

Prompt line: In plain terms: is recorded soluble fraction (log2) at least -0.1 for HMDQHPYGEDSFRGDNPPAGFDIKGNEDSMKFHEPSSPWYGRTIAEVWFRSAAAAEAAGFVNAV ?
Response line: not fulfilled

Prompt line: In plain terms: is recorded soluble fraction (log2) at least -0.1 for HMTGVEAIERYLASGVIPGVGPVLAKRLVERFGARTLEVIEDSPRRLTQVPGIGRQKARQIHQALKAQRE ?
Response line: not fulfilled

Prompt line: In plain terms: is recorded soluble fraction (log2) at least -0.1 for HMKGIHDYITKDGLRVVKVHYSADPDKDVTTVEGKKWMAKALLGYPGGLEGAKWRREMEIDFNA ?
Response line: fulfilled

Prompt line: In plain terms: is recorded soluble fraction (log2) at least -0.1 for HMSTANISIEQAKEIALNHANLTSNQVIFSRTELDYDNGIQKYEVEFYYNNREYSYEINANTGDILGYEQ ?
Response line: not fulfilled

Prompt line: In plain terms: is recorded soluble fraction (log2) at least -0.1 for HMGIVAPGTLKHLHAVGNSYYPDWETKRHELVTAVTKGRTSSSKELYEAEANRLITRIEELLMTAAQSV ?
Response line: fulfilled

Prompt line: In plain terms: is recorded soluble fraction (log2) at least -0.1 for HMGPPAVGSKLQDARKAQQLSLDELSKRAGVSKSMLSEVERNQANPTVGVLWRLATALGISLTDLLG ?
Response line: not fulfilled

Prompt line: In plain terms: is recorded soluble fraction (log2) at least -0.1 for HMEFSYMDQGLERYRAFLETHGHGNVPESYHELKLVNFVAHIRKLYRMNLLSEERRRALDEAGFVF ?
Response line: not fulfilled

Prompt line: In plain terms: is recorded soluble fraction (log2) at least -0.1 for HMASVAKHIRRLRTERHMTQGDLAEKLFVTRQTVSAWETGKAQPDLETLERIAVVLGVEVTELIYGAP ?
Response line: fulfilled

Prompt line: In plain terms: is recorded soluble fraction (log2) at least -0.1 for HMNLTLMDALKAAGLPVDGINLSMVNKMMEEQMPIDKTSLNQMYQLVQDNKDINVTTLVELKRLG ?
Response line: fulfilled

Prompt line: In plain terms: is recorded soluble fraction (log2) at least -0.1 for HMDVRKSISDLKALGLSDAAVTVYGTIGNKPVHIDKIVSELGIPVFKVLTALTQLEMKGLVTAMQGRMYVL ?
Response line: not fulfilled

Prompt line: In plain terms: is recorded soluble fraction (log2) at least -0.1 for HMQETPAMLAMKELPTEDEQRIYMMLQEDYDSVLLVKTIRNAFSQNPQLTRQQLLPIILTWLMT ?
Response line: not fulfilled

Prompt line: In plain terms: is recorded soluble fraction (log2) at least -0.1 for HMGQDLSYYIKIVQNQQPVDPLTGEPKVLDYGEVIRQAQILQMLDTGDLDRDKAIGQLSMKDAL ?
Response line: fulfilled

Prompt line: In plain terms: is recorded soluble fraction (log2) at least -0.1 for HMVKNVVIPDVSNKAPVDASNQLTDLGFEVVTEYKYIASDTIEEGKVVKTSPEIGSKRKYGQKITLYISSG ?
Response line: not fulfilled

Prompt line: In plain terms: is recorded soluble fraction (log2) at least -0.1 for HMFEMPTSLVRTLSAIAIKQPVMQSEIIKLRGAGAYDHIKELIIRELVHRKEEGRSPILTTTKKFQEYFRL ?
Response line: not fulfilled

Prompt line: In plain terms: is recorded soluble fraction (log2) at least -0.1 for HMQISDTTELSTLITKVLSEQSDALVDFKNPKKQKQVIGYLTGQVLRASQGKANPGLVRSLLEEQLSALDS ?
Response line: fulfilled

Prompt line: In plain terms: is recorded soluble fraction (log2) at least -0.1 for HMGVGIEALAVEVDRIRQVLTGGGALSDIQLFSQLKALGEVKTALSSMTDPRARELEKRVAQLLEASLRT ?
Response line: fulfilled

Prompt line: In plain terms: is recorded soluble fraction (log2) at least -0.1 for HMKVIETKYNTYVVKSGDTLYSVAKKYGISVTELKEINDLSNNTLSIGQKLLVPATTIIIDE ?
Response line: not fulfilled

Prompt line: In plain terms: is recorded soluble fraction (log2) at least -0.1 for HMRDSYTFEDIEKLKDSYLQDSEKALEKLISIYEDTNQSLAIRTAALDIITDSQDPTFKLALEKIIS ?
Response line: fulfilled

Prompt line: In plain terms: is recorded soluble fraction (log2) at least -0.1 for HMEEHSLRKQEMLRIIEALEQLTPKEKTVVVLYYFKGVLFKDIAMLLDVTEGRISQLHTAAMGRLKKLMD ?
Response line: fulfilled

Prompt line: In plain terms: is recorded soluble fraction (log2) at least -0.1 for HMNLGETIYNLRKEKKLSQGDLAEQLSVSRQSVSKWENNSAVPDLDKLVKLSTIFGVSLDELVKG ?
Response line: fulfilled

Prompt line: In plain terms: is recorded soluble fraction (log2) at least -0.1 for HMAKINFTSDAIDIGMVTRNDIEMLSFYQNVLGLTKDMEIPFPGLGVVNKLSFGSGFIKILVL ?
Response line: fulfilled

Prompt line: In plain terms: is recorded soluble fraction (log2) at least -0.1 for HMQPAGEGAILRYLSSGAVKGIGPVMAREIVRRFGTDTFRVMEQEPEKLLKVKGITEQRLQTIMESYQD ?
Response line: fulfilled

Prompt line: In plain terms: is recorded soluble fraction (log2) at least -0.1 for HMKEEVSVPDIKGMTYEEAEAKLAKYDLEIEKGETVKASEQYEEGQISSQEPEAGSKVKEGSTIVVDVVE ?
Response line: fulfilled
